Numbers sourced from ChEMBL document CHEMBL1157539.

Tested on: Plasmodium falciparum
Assay: GSK_TCMDC: Inhibition of Plasmodium falciparum 3D7 in whole erythrocytes, using parasite LDH activity as an index of growth.
Assay type: functional, organism-based
Settings: Plasmodium falciparum, 3D7
observable: XC50 (nM)
Give bare numbers, in nM.

Completed entries (count: 3):
                                   compound  observed_value
0  CC(C)CN1CCCN(Cc2cccc(NC(=O)c3ccc(-c4ccccc4)cc3)c2)CC1             883
1  O=C(COc1ccccc1)NC1CCN(c2ccnc3cc(Cl)ccc23)C1 (centres undefined)             698
2  COc1ccc(-c2ccc(NC(=O)c3cccc(Cl)c3)c(F)c2)cc1CN1CCCN(C)CC1             679

Consider now this further compound.
*Q* Item under review: `O=C(Nc1ccc(Cn2nc(Cl)c(N3CCCNCC3)cc2=O)cc1)c1ccc(-c2ccccc2)cc1` . Reported XC50?
*A* 713

###

Field: XC50. Provide a value for each of the compounds that follow.
Tested on: Plasmodium falciparum
Experiment: GSK_TCMDC: Inhibition of Plasmodium falciparum 3D7 in whole erythrocytes, using parasite LDH activity as an index of growth.
Assay type: functional, organism-based
Settings: Plasmodium falciparum, 3D7
One number for each entry, in nM.

>>> df
                                   compound            test_target  observed_value
0  O=C(Cn1c(CCc2cccc(F)c2F)cc(=O)c2ccccc21)N(CCN1CCCC1)Cc1ccc(-c2ccc(C(F)(F)F)cc2)cc1  Plasmodium falciparum             859
1  CNC(=O)NC1CCN(Cc2c(-c3cccs3)nc3ccccc3c2C(=O)N[C@@H](C)C2CCCCC2)CC1  Plasmodium falciparum             219
2   CCN(CC)CC#Cc1ccc2[nH]c(C)c(Cl)c(=O)c2c1  Plasmodium falciparum             702

With those in mind, consider the next compound.
*Q* // returns reported XC50 for input O=C(/C=C/c1ccc(Cl)c(Cl)c1)NC1CCC(CN2CCC(c3c[nH]c4cc(O)ccc34)CC2)CC1 (centres undefined)
*A* 813

###

System: Plasmodium falciparum
Assay: GSK_TCMDC: Inhibition of Plasmodium falciparum 3D7 in whole erythrocytes, using parasite LDH activity as an index of growth.
Assay type: functional, organism-based
Conditions: Plasmodium falciparum, 3D7
// classify: if (XC50 < 800 nM) y else n

>>> df
                                test_smiles  cat
0  O=C(Nc1ccccc1O)C1CCN(c2ncnc3cc(-c4ccc(F)cc4)sc23)CC1    n
1  CC(=O)c1cccc(S(=O)(=O)NCCCNc2nc3cc(C)cc(C)c3cc2C#N)c1    n
2  O=C(Nc1ccc(OC2CCN(Cc3ccccc3)CC2)c(Cl)c1)c1ccsc1    n
3  COc1ccc(CCNC(=O)c2cc3c(=O)n4cccc(C)c4nc3n(C)c2=N)cc1    y
4  COc1cc(C(C)C)ccc1C1CCN(CCCCNC(=O)c2ccc(NC(=O)c3ccc(Cl)cc3)cc2)CC1    y

From here, focus on the item given below.
*Q* Threshold test, XC50 < 800 nM: `O=C(N[C@@H](CC1CCCCC1)C(=O)NC1CCCCCC1)c1ccc(O)c(-c2ccc(Cl)c(Cl)c2)c1`
*A* y

###

Test system: Plasmodium falciparum
Assay: GSK_TCMDC: Inhibition of Plasmodium falciparum 3D7 in whole erythrocytes, using parasite LDH activity as an index of growth.
Type: functional, organism-based
Details: Plasmodium falciparum, 3D7
observable: XC50

# count of solved cases: 5
>>> df
                                   compound            test_target  observed_value
0  O=S(=O)(Nc1cccc(CCN2CCC(N3CCCCC3)CC2)c1)c1ccc(Cl)cc1  Plasmodium falciparum        0.916 µM
1  COc1ccc(Nc2nccc(N3CCC(NS(=O)(=O)c4ccc(NC(C)=O)cc4)C3)n2)cc1 (stereo not drawn)  Plasmodium falciparum        0.795 µM
2  CNc1ccc(CNCc2ccc(-c3ccc(-c4nc5cc(F)ccc5[nH]4)cc3)cc2)cc1  Plasmodium falciparum         0.21 µM
3  Cc1nc(-c2ccc(C#N)cc2)sc1C(=O)NCCCCN1CCC(c2ccc3c(c2OCCO)CCCC3)CC1  Plasmodium falciparum         0.85 µM
4  Cc1cc(OCC2CCN(c3ncc(C(=O)Nc4ccccc4)cc3Cl)CC2)ccc1F  Plasmodium falciparum        0.899 µM

# batch size: 5; output XC50 per entry
1. O=C(Nc1ccccc1)N1CCC(CN2CCOC(c3ccccc3)(c3ccccc3)C2)CC1
2. O=C(Nc1cccc(CN2CCCN(CCc3ccccc3)CC2)c1)c1ccc(Cl)c(Cl)c1
3. COc1ccccc1NC(=O)Nc1cccc(-c2ccc(-c3nc4cccc(C)c4[nH]3)s2)c1
4. CC(=O)Nc1ncc(C(=O)Nc2cccc(-c3ccc(-c4nc5cc(C(F)(F)F)ccc5[nH]4)cc3)c2)s1
5. COc1ccc(Br)cc1/C=C/C(=O)Nc1ccc2c(c1)CCCN(C)C2

*A*
["0.206 µM", "0.952 µM", "0.579 µM", "0.59 µM", "1.56 µM"]

# per-item lookup of XC50; items listed below
1. N#Cc1cccc(COC(=O)C2=C(COc3ccccc3Cl)NC(=O)NC2c2c[nH]c3cnccc23)c1 (stereo not drawn)
2. COc1ccc(N2CCN(CCCCNC(=O)c3ccc(NC(=O)c4ccc(Cl)cc4)cc3)CC2)c(OC)c1
3. COc1cc(OC)c2c(C)cc(NCCCn3ccnc3)nc2c1
4. CCOc1ccc(N2CCN(CCCCNC(=O)c3ccc(NC(=O)c4ccc(Cl)cc4)cc3)CC2)c(OCC)c1
5. Cc1cc(=O)c2cc(-c3ccc(OC(F)(F)F)cc3)ccc2[nH]1
6. O=C(/C=C/c1ccc2ccccc2c1)NC1CCC(CN2CCC(c3c[nH]c4ccccc34)CC2)CC1 (stereo not drawn)
7. C#CCNC(=O)c1ccc(-c2ccnc(Nc3cccc(CCCN4CCOCC4)c3)n2)s1
8. c1ccc2c(c1)CN(Cc1cc3ccccc3[nH]1)CC1(CCN(Cc3c[nH]c4cnccc34)CC1)O2

*A*
1. 0.792 µM
2. 0.951 µM
3. 0.804 µM
4. 0.567 µM
5. 0.476 µM
6. 0.727 µM
7. 1 µM
8. 0.306 µM

State recorded XC50 for all listed compounds.
1. COc1ccc(C(c2ccc(N(C)C)cc2)c2ccc(N(C)C)cc2)cc1
2. CN1CCN(CC(=O)Nc2cccc(-c3ccc(-c4nc5cc(C(F)(F)F)ccc5[nH]4)cc3)c2)CC1
3. Oc1ccc2nc(NCCCc3ccccc3)nc(NCCc3ccccc3)c2c1
4. O=C(Nc1ccc2ccccc2c1)c1ccc(CN2CCC(Cc3ccccc3)CC2)cc1
5. COc1ccc2ccc(F)c(CC(=O)N3CCOC(CNCc4cccc(-c5ccsc5)n4)C3)c2n1 (stereo not drawn)

*A*
1: 0.0648 µM; 2: 0.52 µM; 3: 0.289 µM; 4: 0.876 µM; 5: 1.17 µM

###

Test system: Plasmodium falciparum
Assay: GSK_TCMDC: Inhibition of Plasmodium falciparum 3D7 in whole erythrocytes, using parasite LDH activity as an index of growth.
Type: functional, organism-based
Conditions: Plasmodium falciparum, 3D7
Note to self: XC50 under 800 nM means Criterion met, ties and anything higher get Criterion not met.

In [3]: df
Out[3]:
                                test_smiles                cat
0  O=C(NCCCCN1CCN(c2cccc(Cl)c2Cl)CC1)c1ccc2c(c1)CCN(C1CCC1)CC2      Criterion met
1         N=C(N)c1ccc(Oc2ccc(C(=N)N)cc2)cc1      Criterion met
2  c1ccc(CN2CCN(CCCCNc3c4ccccc4nc4ccccc34)CC2)cc1      Criterion met
3  O=C(/C=C/c1cccc(C(F)(F)F)c1)NCCCCCN1CCC(c2c[nH]c3ccccc23)CC1  Criterion not met
4  Cc1cc(N/N=C/c2cccc([N+](=O)[O-])c2)c2ccccc2n1      Criterion met

*Q* Strictly below 800 nM in XC50? `Cn1cncc1CCN(Cc1ccc(-c2ccc(C(F)(F)F)cc2)cc1)C(=O)Cn1c(CCc2cccc(F)c2F)cc(=O)c2cccnc21`
*A* Criterion not met

*Q* Check `Fc1cccc(COc2ccc(Nc3ncnc4sc(C#C[C@H]5CC[C@H](CN6CCOCC6)N5)cc34)cc2Cl)c1` too.
*A* Criterion not met

*Q* // query: `CCCCCCCNCc1c(O)ccc2c(CNCCCCCCC)c(O)ccc12`
*A* Criterion met

###

Kindly supply the reported XC50 values for the records listed here.
Test system: Plasmodium falciparum
Assay: GSK_TCMDC: Inhibition of Plasmodium falciparum 3D7 in whole erythrocytes, using parasite LDH activity as an index of growth.
Assay type: functional, organism-based
Conditions: Plasmodium falciparum, 3D7
The answer should read as a number with its unit following.

Record XC50 for all entries; do not skip any.
1. CN1CCCC1CCNc1ncc2c(-c3ccc(NC(=O)Nc4cc(C(F)(F)F)ccc4F)cc3)nn(C)c2n1 (stereo not given)
2. CC(C)N1CCN(C(=O)c2ccc(CN(C)CCCN3CCN(c4cccc(Cl)c4Cl)CC3)s2)CC1
3. CC(C)c1ccc(OCCCON2C(=N)N=C(N)NC2(C)C)cc1
4. Cc1cc(Nc2cccc(C#N)c2)nc(Nc2ccccc2C)n1
5. COc1cc(Nc2nc(N)c3cc(OC)c(OC)cc3n2)cc(OC)c1
6. COc1cccc(NC(=O)COc2ccc(C(=O)Nc3nc4ccccc4[nH]3)cc2)c1

*A*
["344 nM", "994 nM", "3.2 nM", "861 nM", "272 nM", "970 nM"]

Look at each compound and report its XC50.
1. COc1ccc2ncc(F)c(CCN3C[C@H](CNCc4cc(C#N)c5c(c4)OCCO5)[C@H](O)C3)c2n1
2. O=C(Nc1cccc(-c2csc(-c3nc4ccccc4[nH]3)c2)c1)c1cc(=O)c2ccccc2[nH]1
3. O=C(/C=C/c1ccc(Cl)c(Cl)c1)NCCCCCCN1CCCN(C(=O)Nc2ccc(F)c(Cl)c2)CC1
4. COc1ccc2nccc([C@@H](O)CN3CCC(NCc4ccc5scnc5c4)CC3)c2c1

*A*
["582 nM", "232 nM", "738 nM", "399 nM"]
